target-of-assay: T1, human GPCR142 (human, UniProt Q8TDU9 1-374)
T1 construct: Recombinant
T1 sequence (Q8TDU9 whole entry L329S): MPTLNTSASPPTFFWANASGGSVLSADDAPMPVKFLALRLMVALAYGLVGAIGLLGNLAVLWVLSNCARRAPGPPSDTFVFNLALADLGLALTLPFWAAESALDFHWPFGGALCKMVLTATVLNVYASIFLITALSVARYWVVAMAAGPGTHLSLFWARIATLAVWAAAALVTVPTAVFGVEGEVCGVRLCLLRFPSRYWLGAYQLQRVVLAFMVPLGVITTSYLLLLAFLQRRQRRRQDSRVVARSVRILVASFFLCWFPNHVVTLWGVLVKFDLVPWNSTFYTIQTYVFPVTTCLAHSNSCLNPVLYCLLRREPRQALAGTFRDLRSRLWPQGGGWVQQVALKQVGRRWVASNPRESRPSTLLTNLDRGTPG
assay-explanation: competition with [125I]-relaxin-3 (100 pM), COS-7 membranes with human GPCR142
Ends that are not written are not given here.
Listed binders paired with reported IC50
Please reply with the bare figure in nM and do not write the unit itself.

binder: human relaxin-3/relaxin-2 chimeric polypeptide (R3/R2), mature (ligand, disulfide (positions not given here); also: two-chain peptide (relaxin-3 B chain, relaxin-2 A chain), disulfide-linked, places not given here, Mature two-chain peptide: human relaxin-3 B-chain disulfide-linked to human relaxin-2 A-chain; FLAG tag removed) RAAPYGVRLCGREFIRAVIFTCGGSRWQLYSALANKCCHVGCTKRSLARFC
display-unit: nM
IC50: 1.8

Let's switch to this binder now.
**Q:** State the recorded IC50 for this entry: RAAPYGVRLCGREFIRAVIFTCGGSRWQDLQTLCCTDGCSMTDLSALC (ligand, disulfide (positions not given here); also: two chains (relaxin-3 B-chain, INSL5 A-chain), disulfide-linked, chain break not marked, Mature two-chain peptide: human relaxin-3 B-chain disulfide-linked to human INSL5 A-chain; FLAG tag removed; the tracer is kept under this same molecule; also called R3/5; I5/R3) [human relaxin-3/INSL5 chimeric polypeptide (R3/I5), mature]
**A:** 1.4

Data credit: patent US20080051336A1
